Test system: MS2 coat protein
Assay: apparent Kd, MS2 coat protein; higher = weaker binding; RNA-MaP array
Conditions: designed as: OFF switch for flavin mononucleotide; no ligand
Experimental endpoint: apparent Kd

UGUAUGUUAGGAUAUAGUGUGACACUGUAAUUGCUCGGCACCUAGAAGGAACAUGAGGAUCACCCAUGUGGUGG
337 nM
UGUAACGAAGGAUAUACAAGAAGACAAGUGCGGCAGUACGUACAUGAGGAUCACCCAUGUAGAAGGUCGAAGGC
7.03 nM
GGGAAACAUGAGGAUCACCCAUGUAAGGAUAUAGAAGAUUCAACAUUCAAGAAUGAGACUAGAAGGUACAGAUC
20.2 nM

Now look at this entry.
GET /values?item= `AAUUCAAGGGUUAGGAUAUUCAAUAUAAAAUACUAGAAGAAGGAACAUGAGGAUCACCCAUGUUAUAGUGAUCU` &system= MS2 coat protein returns apparent Kd: 27.1 nM

###

System: MS2 coat protein
Experiment: apparent Kd, MS2 coat protein; higher = weaker binding; RNA-MaP array; FMN 200 µM where present
Details: designed as: OFF switch for flavin mononucleotide; no ligand
Experimental endpoint: apparent Kd (nM)
Just the number in nM, nothing appended.

Lab note: `GUAAAUCAUGUAGGAUAUGCAUGGCGAAGCUACGCAGAAGGACAUGAGGAUCACCCAUGUCUGUCCGUCUGCGAACAGACGGAC` gave apparent Kd of 23.4

###

Test system: MS2 coat protein
Assay: apparent Kd, MS2 coat protein; higher = weaker binding; RNA-MaP array; tryptophan 2.4 mM where present
Settings: ligand present: tryptophan; designed as: ON switch for tryptophan
Rule: Met for apparent Kd not less than 30 nM, Not met for anything less.

GCUACAUGAGGAUCACCCAUGUAUGCGAGUCGAGGACCGGUACGGCCGCCACUCGCUUAACAUGAGGAUCACCCAUGUUACUCGC
Met

Say whether `AAGGCACGAGACAUGAGGAUCACCCAUGUUCGAGGACCGGUACGGCCGCCACUCGGUGGACUCAUGGUAAAGCCGGUGAGCCAAA` shows apparent Kd of 30 nM or more.
Met

Say whether `AAUAAUAGGUGAUCCUAACGAGUGGCAUAACGAGGACCGGUACGGCCGCCACUCGAACAUGAGGAUCACCCAUGUAGUCACUCGA` shows apparent Kd of 30 nM or more.
Met

Say whether `GAGUACACUACGGCCGCCACUCAAGGAGCUACAUAGCUCCUAGACAUGAGGAUCACCCAUGUACCGAGGACCGGGUAGAUCCUUA` shows apparent Kd of 30 nM or more.
Met

Say whether `GGGUGGUAGGCGGCCGCCACUGAUUUUUAUUUAUAGAUGACAUGAGGAUCACCCAUGUUGAUAUGCAGGACCGGGCCUGUUGUUG` shows apparent Kd of 30 nM or more.
Not met

Say whether `CAUGCCAGGGCGGCCGCCACUGUGGCUACGGUACAUGAGGAUCACCCAUGUUUGUGGUUGAUCUACAGGACCGGGCCCUAGCACG` shows apparent Kd of 30 nM or more.
Met

Say whether `UAAACUACACAUGAGGAUCACCCAUGUGGCCGAGGACCGGUACGGCCGCCACUCGUGUGUUAAUAAAAGAACCGCAAAGUUCUGU` shows apparent Kd of 30 nM or more.
Met

Say whether `CUACAUUUGUAGAAACCGGUCAACAAUAAUCGAGGACCGGUACGGCCGCCACUCGUAUAAUUUAUUACAUGAGGAUCACCCAUGU` shows apparent Kd of 30 nM or more.
Not met

Say whether `GAUUAAACAUGAGGAUCACCCAUGUAUAUACGAGGACCGGUACGGCCGCCACUCGAAAACGAGUAUCCUCGAAUAAACAUGAUAA` shows apparent Kd of 30 nM or more.
Met

Say whether `CUUAUAUAUACGGCCGCCACUUACUCAUGAGGUAACAACAUGAGGAUCACCCAUGUUUGAGGAUCAAGGACCGGGUAUAUAUAAG` shows apparent Kd of 30 nM or more.
Not met
